Experiment: Stability in cynomolgus monkey fecal homogenate
Type: in vitro ADME
Details: 20% fecal homogenate (supernatant), pH 6.8, 20% cynomolgus monkey fecal homogenate, anaerobic, 37° C., read-out: t½: Monkey Feces anaerobic (converted)
Numbered stars: 1 amine (or outer) side, 2 acyl side, 3 side chain; on linkers, the order of the positions; unused ones are H or OH. Bridge positions count the residues as written; N and C are the ends. Square brackets hold non-standard residues; d marks the D form. Peptide text beside a SMILES is read from it. X3 = CCc1ccc2c(C[C@H](N[*:1])C(=O)[*:2])c[nH]c2c1; 2Nal = N[C@@H](Cc1ccc2ccccc2c1)C(=O)O; AEF = NCCOc1ccc(C[C@H](N)C(=O)O)cc1; Pen = CC(C)(S)[C@H](N)C(=O)O; αMeK = C[C@](N)(CCCCN)C(=O)O
Entries and their measured half-life at 20 μM follow.

molecule | measured_parameter | obs_value
CC(=O)NCCCC[C@@H]1NC(=O)[C@H](Cc2c[nH]c3c(C)cccc23)NC(=O)[C@H]([C@@H](C)O)NC(=O)[C@H](CC(N)=O)NC(=O)[C@@H](NC(C)=O)C(C)(C)SSC(C)(C)[C@@H](C(=O)N[C@@H](Cc2ccc(OCCN)cc2)C(=O)N[C@@H](Cc2ccc3ccccc3c2)C(=O)N[C@@](C)(CCCCN)C(=O)N[C@@H](CCCCNC(=O)CC(C)C)C(=O)N[C@@H](CC(N)=O)C(=O)N[C@H](CC(C)C)C(N)=O)NC1=O | half-life at 20 μM | > 24 h

QUERY: Report measured half-life at 20 μM; entry is CCc1ccc2c(C[C@@H]3NC(=O)[C@H]([C@@H](C)O)NC(=O)[C@H](CC(N)=O)NC(=O)[C@@H](NC(C)=O)C(C)(C)SSC(C)(C)[C@@H](C(=O)N[C@@H](Cc4ccc(OCCN)cc4)C(=O)N[C@@H](Cc4ccc5ccccc5c4)C(=O)N[C@@](C)(CCCCN)C(=O)N[C@@H](CCCCNC(C)=O)C(=O)N[C@@H](CC(N)=O)C(=O)N[C@H](CCCCN)C(N)=O)NC(=O)[C@H](CCCCNC(C)=O)NC3=O)c[nH]c2c1 [compound 349] (Ac-[Pen]NT[X3]K(Ac)[Pen][AEF][2Nal][αMeK]K(Ac)N[dK]-NH2; disulfide 1-6)
RESULT: > 24 h

====

Assay: Stability in rat plasma
Type: in vitro ADME
Conditions: both sexes, SD rat plasma, EDTA, 37° C., read-out: t½: Rat Plasma EDTA (converted)
measured_parameter: half-life at 20 μM

sample_smiles | half-life at 20 μM
CC(=O)NCCCC[C@H](NC(=O)[C@](C)(CCCCN)NC(=O)[C@H](Cc1ccc2ccccc2c1)NC(=O)[C@H](Cc1ccc(OCCN)cc1)NC(=O)[C@H]1NC(=O)[C@H](CCCCNC(=O)CC(C)C)NC(=O)[C@H](Cc2c[nH]c3c(C)cccc23)NC(=O)[C@H]([C@@H](C)O)NC(=O)[C@H](CC(N)=O)NC(=O)[C@@H](NC(C)=O)C(C)(C)SSC1(C)C)C(=O)N[C@@H](CC(N)=O)C(=O)N[C@H](CC(C)C)C(N)=O | > 24 h

QUERY: Supply measured half-life at 20 μM of CC(=O)NCCCC[C@@H]1NC(=O)[C@H](Cc2c[nH]c3c(C)cccc23)NC(=O)[C@H]([C@@H](C)O)NC(=O)[C@H](CC(N)=O)NC(=O)[C@@H](NC(C)=O)C(C)(C)SSC(C)(C)[C@@H](C(=O)N[C@@H](Cc2ccc(OCCN)cc2)C(=O)N[C@@H](Cc2ccc3ccccc3c2)C(=O)N[C@@](C)(CCCCN)C(=O)N[C@@H](CCCCNC(=O)CC(C)C)C(=O)N[C@@H](CC(N)=O)C(=O)N[C@H](CC(C)C)C(N)=O)NC1=O in your reply.
RESULT: > 24 h

QUERY: Supply reported half-life at 20 μM belonging to this compound: CC(=O)NCCCC[C@@H]1NC(=O)[C@H](Cc2c[nH]c3c(C)cccc23)NC(=O)[C@H]([C@@H](C)O)NC(=O)[C@H](CC(N)=O)NC(=O)[C@@H](NC(C)=O)C(C)(C)SSC(C)(C)[C@@H](C(=O)N[C@@H](Cc2ccc(OCCN)cc2)C(=O)N[C@@H](Cc2ccc3ccccc3c2)C(=O)N[C@@](C)(CC(C)C)C(=O)N[C@@H](CCCCNC(C)=O)C(=O)N[C@@H](CC(N)=O)C(=O)N[C@H](CC(N)=O)C(N)=O)NC1=O
RESULT: 7 h

====

Test: Stability in human fecal homogenate
Type: in vitro ADME
Conditions: 20% fecal homogenate (supernatant), pH 6.8, 20% human fecal homogenate, anaerobic, 37° C., read-out: t½: Human Feces anaerobic (converted)
Procedure: Centrifuged the homogenate at 2800×g for 15 min. The supernatant is taken out and used for incubations. […] The final test compound concentration was 20 μM.
Numbered stars: 1 amine (or outer) side, 2 acyl side, 3 side chain; on linkers, the order of the positions; unused ones are H or OH. Bridge positions count the residues as written; N and C are the ends. Square brackets hold non-standard residues; d marks the D form. Peptide text beside a SMILES is read from it. X3 = CCc1ccc2c(C[C@H](N[*:1])C(=O)[*:2])c[nH]c2c1; 2Nal = N[C@@H](Cc1ccc2ccccc2c1)C(=O)O; AEF = NCCOc1ccc(C[C@H](N)C(=O)O)cc1; Pen = CC(C)(S)[C@H](N)C(=O)O; αMeK = C[C@](N)(CCCCN)C(=O)O
measured_parameter: half-life at 20 μM

Known half-life at 20 μM results, listed for orientation:
compound | obs_value
CC(=O)NCCCC[C@@H]1NC(=O)[C@H](Cc2c[nH]c3c(C)cccc23)NC(=O)[C@H]([C@@H](C)O)NC(=O)[C@@H](CC(N)=O)NC(=O)[C@@H](NC(C)=O)C(C)(C)SSC(C)(C)[C@@H](C(=O)N[C@@H](Cc2ccc(OCCN)cc2)C(=O)N[C@@H](Cc2ccc3ccccc3c2)C(=O)N[C@@](C)(CCCCN)C(=O)N[C@@H](CCCCNC(C)=O)C(=O)N[C@@H](CC(N)=O)C(=O)N[C@H](CC(C)C)C(N)=O)NC1=O [compound 338] | > 24 h
CCc1ccc2c(C[C@@H]3NC(=O)[C@H]([C@@H](C)O)NC(=O)[C@H](CC(N)=O)NC(=O)[C@@H](NC(C)=O)C(C)(C)SSC(C)(C)[C@@H](C(=O)N[C@@H](Cc4ccc(OCCN)cc4)C(=O)N[C@@H](Cc4ccc5ccccc5c4)C(=O)N[C@@](C)(CCCCN)C(=O)N[C@@H](CCCCNC(C)=O)C(=O)N[C@@H](CC(N)=O)C(=O)N[C@H](CCCCN)C(N)=O)NC(=O)[C@H](CCCCNC(C)=O)NC3=O)c[nH]c2c1 [compound 349] (Ac-[Pen]NT[X3]K(Ac)[Pen][AEF][2Nal][αMeK]K(Ac)N[dK]-NH2; disulfide 1-6) | > 24 h

QUERY: Consider the compound CC(=O)NCCCC[C@H](NC(=O)C1(NC(=O)[C@H](Cc2ccc3ccccc3c2)NC(=O)[C@H](Cc2ccc(OCCN)cc2)NC(=O)[C@H]2NC(=O)[C@H](CCC(N)=O)NC(=O)[C@H](Cc3c[nH]c4c(C)cccc34)NC(=O)[C@H]([C@@H](C)O)NC(=O)[C@H](CC(N)=O)NC(=O)[C@@H](NC(C)=O)C(C)(C)SSC2(C)C)CCNCC1)C(=O)N[C@@H](CC(N)=O)C(=O)NCCC(N)=O [compound 275] . State its measured half-life at 20 μM.
RESULT: > 24 h

====

Assay: Stability in simulated intestinal fluid (SIF)
Assay type: in vitro ADME
Conditions: simulated intestinal fluid with pancreatin, pH 6.8, 37° C., 20 μM; matrix is 100 fold dilution of standard SIF concentration
Bridge positions count the residues as written; N and C are the ends. Square brackets hold non-standard residues; d marks the D form. Peptide text beside a SMILES is read from it. Trp(7-Me) = Cc1cccc2c(C[C@H](N)C(=O)O)c[nH]c12; Trp(2-Me) = Cc1[nH]c2ccccc2c1C[C@H](N)C(=O)O; AEF = NCCOc1ccc(C[C@H](N)C(=O)O)cc1; Pen = CC(C)(S)[C@H](N)C(=O)O; αMeK = C[C@](N)(CCCCN)C(=O)O
measured_parameter: SIF t½ (h)
Provide only the numeric value, understood in h.

QUERY: Name the recorded SIF t½ of the compound listed here: CC(=O)NCCCC[C@@H]1NC(=O)[C@H](Cc2c[nH]c3c(C)cccc23)NC(=O)[C@H]([C@@H](C)O)NC(=O)[C@H](CC(N)=O)NC(=O)[C@@H](NC(C)=O)C(C)(C)SSC(C)(C)[C@@H](C(=O)N[C@@H](Cc2ccc(OCCN)cc2)C(=O)N[C@@H](Cc2c(C)[nH]c3ccccc23)C(=O)N[C@@](C)(CCCCN)C(=O)N[C@@H](CCCCNC(C)=O)C(=O)N[C@@H](CC(N)=O)C(=O)N[C@H](CCCCN)C(N)=O)NC1=O [compound 353] (Ac-[Pen]NT[Trp(7-Me)]K(Ac)[Pen][AEF][Trp(2-Me)][αMeK]K(Ac)N[dK]-NH2; disulfide 1-6)
RESULT: 24

Source: patent US11041000B2
